B1: minF1; the commonest letter at each place (parent)
chain: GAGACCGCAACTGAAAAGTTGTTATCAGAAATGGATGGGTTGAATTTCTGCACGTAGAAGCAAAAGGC

Variants of: B1
method_notes: fraction ligated after 30 min (ligated reads / total reads); higher = more ligase activity
setup_conditions: with F1*subA RNA substrate (template-directed ligation), 42 °C
# fraction ligated binned as b0 (below 0.009), b1 (0.009 to below 0.2), b2 (0.2 or more)

Before answering, review these 3 worked examples.
>>> qualitative_label("A24C T32C")
"b0"
>>> qualitative_label("A24G A43T")
"b0"
>>> qualitative_label("A31C")
"b2"

Which class holds A24G G33T ?
b1

Assign a bin to A27G A30C
b2

Sort T32C T36C into one of the categories.
b0

Which class holds C26G G34T ?
b0

# classify by fraction ligated band: A31T G37T
b1

Returns: class label. Input: C26G G33A
b1
